Reference source for all entries: PubChem BioAssay (NCI)

List of growth inhibition values.
experimentNotes: NCI Yeast Anticancer Drug Screen. Data for the mgt1 strain (AID 153)
details: S. cerevisiae mgt1 mutant growth inhibition; at 1.2 µM; active compounds read high
This is part of a sample that, as a whole, favours compounds with a hit. Of some 79,000 tested, about 15% had one in any assay. Active and inactive are the calls of the source. No stated cut-off is given here; in the data, active means growth inhibition above about 70%; inactive means the rest.

Example entries begin here.
- Cc1cc(N=Nc2ccc(S(=O)(=O)[O-])cc2)cc(C(=O)[O-])c1[O-].NC1CCCCC1N.[Na+].[Pt+4]: 34% (inactive)
- CCC(=O)Oc1c(Cl)cc(Cl)c2ccccc12: -8% (inactive)
- CC(=O)Oc1cc(-c2cc(OC(C)=O)c(OC(C)=O)c3ccccc23)c2ccccc2c1OC(C)=O: 5% (inactive)
- Cc1ccc(-c2ccc(Nc3c4ccccc4nc4ccccc34)cc2)cn1: 4% (inactive)
- O=[N+]([O-])c1ccc2nc3ccccc3cc2c1: -1% (inactive)

Would you kindly share the measured growth inhibition for `O=[N+]([O-])c1ccc(=S)[nH]c1` ?
-3% (inactive)

###

experimentNotes: NCI Yeast Anticancer Drug Screen. Data for the rad14 strain (AID 159);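 further: 0% = growth of vehicle-treated control cultures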
details: S. cerevisiae rad14 strain growth inhibition; at 100.0 µM; active compounds read high
The panel holds about 79,000 compounds, 15% with a hit somewhere; the sample as a whole holds those more often.
List of growth inhibition values.
Write down the numeric answer in % and omit the unit.

* OC(COc1cccc2ccccc12)CN1CCOCC1 (stereo not given) | 52
* O=C1CSC(/C=C/c2ccccc2)N1c1ccc(-c2ccc(-n3c(-c4ccccc4)nc4ccccc4c3=O)cc2)cc1 (stereo not given) | 79
* S=C(Nc1ccc(Cl)c(Cl)c1)SCc1ccc2c(c1)OCO2 | 96
* O=C(NCCCNCCCNC(=O)c1cc(-c2ccccc2)nc2ccccc12)c1cc(-c2ccccc2)nc2ccccc12 | 82

Consider the record given below.
Would you kindly share the measured growth inhibition for COc1cc(CC2CC(c3ccc4c(c3)OCO4)OC2=O)cc(OC)c1OC (stereo not given) ?
12

###

List of growth inhibition values.
experimentNotes: NCI Yeast Anticancer Drug Screen. Data for the wt1 strain (AID 149);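 further: 0% = growth of vehicle-treated wt1 cultures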
details: S. cerevisiae wt1 strain (SPY 50644) growth inhibition; at 1.2 µM; active compounds read high
Compounds without any hit were thinned out: in the full panel of roughly 79,000, 15% have a hit. Activity calls are given as the source filed them. Cut-off read from the data, not from the text of the source: active = growth inhibition above about 70%; inactive = the rest.

Would you kindly share the measured growth inhibition for `COc1ccc2c(c1)C(=O)c1ccccc1C2` ?
2% (inactive)

And `Cc1ccc(S(=O)(=O)Oc2cc(Cl)c(Cl)cc2Cl)cc1` ?
-2% (inactive)

And `COc1ccc(O)c(/C=N\Nc2ccccc2)c1` ?
-1% (inactive)

And Clc1ccc(SC(/C=C/NNC2=NC(c3ccccc3)C(c3ccccc3)=NN2)c2ccccc2)cc1 (configuration not stated) ?
0% (inactive)

And `COc1cc2c3c(cccc3c1)C(=O)N(CCN(C)C)C2=O` ?
-6% (inactive)

And `CCOC(=O)c1cnc2c(C(F)(F)F)cccc2c1N=[N+]=[N-]` ?
10% (inactive)

And `COCCOC(=O)CCn1cc(F)c(=O)[nH]c1=O` ?
0% (inactive)

###

List of growth inhibition values.
experimentNotes: NCI Yeast Anticancer Drug Screen. Data for the mgt1 strain (AID 153)
details: S. cerevisiae mgt1 mutant growth inhibition; at 33.0 µM; active compounds read high
About 79,000 compounds went through this panel and 15% of them were active in at least one assay; those are over-represented in the sample as a whole. Activity calls are given as the source filed them. No stated cut-off is given here; in the data, active means growth inhibition above about 70%; inactive means the rest.

Example entries begin here.
* c1ccc2c(c1)sc1cc3ccncc3cc12 | 11% (inactive)
* COC(=O)c1cc(-c2ccc(C)cc2)[nH]c(=O)c1C#N | -1% (inactive)
* Clc1ccccc1C1OC1c1ccccc1Cl (configuration not stated) | -35% (inactive)
* CCS(=O)(=O)c1ccc(/C=C/C=N/NC(=S)NCC(C)C)cc1 | 5% (inactive)
* COc1ccc(/C(C)=N/OC(=O)c2c(-c3ccccc3Cl)noc2C)cc1CN1CCOCC1 | 36% (inactive)
* CCCCCCCCC/C=C/C=C/C(=O)NCC(=O)NC1C(O)C(O)C(Nc2ncnc3nc[nH]c23)OC1C(O)CO (configuration not stated) | 43% (inactive)

Consider the record given below.
Would you kindly share the measured growth inhibition for `S=C(Nc1ccc(Cl)c(Cl)c1)SCc1ccc2c(c1)OCO2` ?
99% (active)

###

experimentNotes: NCI Yeast Anticancer Drug Screen. Data for the bub3 strain (AID 167)
details: S. cerevisiae bub3 mutant strain, at 50.0 µM (retest, dose inferred, filed as 5.0)
This is part of a sample that, as a whole, favours compounds with a hit. Of some 79,000 tested, about 15% had one in any assay. The source made the active and inactive calls. Rule as the data show it: active = growth inhibition above about 70%; inactive = the rest.
In this exercise, the only acceptable responses are t for active, f for inactive

• O=C1OC(CCl)CN1/N=C/c1ccc([N+](=O)[O-])o1 (stereo not drawn) = t
• O=C(O)c1ccccc1-c1ccccc1C(=O)Nc1ccc2c(c1)Cc1ccccc1-2 = f
• COc1ccc(C2c3cc4c(cc3OC(C)(O)C2C)OCO4)c(OC)c1 (stereo not drawn) = f

What outcome does the record of this test show for C=CCC1=C(C)C(OC(=O)/C=C/c2ccccc2)CC1=O (stereo not drawn) ?
t

And `CNC(=O)OCc1c(COC(=O)NC)c(-c2ccc(Cl)c(Cl)c2)n2c1CCC2` ?
t

And `Brc1ccc(-c2cc3c(cc2C2SCCS2)OCO3)cc1` ?
t

And CCCN(CCC)CC(O)c1cc(-c2ccc(Cl)cc2)nc2c(C)c(Cl)ccc12 (stereo not drawn) ?
t

And `O=C1Nc2ccccc2/C1=C/COc1ccccc1` ?
t

And `COc1ccc2ccc3ccccc3c2c1C=O` ?
f

And `C[C@H](CCC(=O)NN)[C@H]1CC[C@H]2[C@@H]3CC[C@@H]4C[C@H](O)CC[C@]4(C)[C@H]3CC[C@]12C` ?
t

###

List of growth inhibition values.
experimentNotes: NCI Yeast Anticancer Drug Screen. Data for the rad52 strain (AID 147);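 further: 0% = growth of vehicle-treated control cultures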
details: S. cerevisiae rad52 mutant growth inhibition; at 11.0 µM; active compounds read high
This is part of a sample that, as a whole, favours compounds with a hit. Of some 79,000 tested, about 15% had one in any assay.
Write down the numeric answer in % and omit the unit.

• NCCNc1ccc(NCCN)c2c1C(=O)c1c(O)ccc(O)c1C2=O = 88
• O=C(OCCN1CCCCCC1)C(c1ccsc1)C1CCCCC1 (stereo not given) = 50
• O=C1C=CC(=O)c2c(O)c(Nc3ccc(OC(F)(F)F)cc3)c(Cl)c(O)c21 = 17
• CCCCCCCC1(N=[N+]=[N-])C(=O)c2ccccc2N(C)C1=O (stereo not given) = 18
• CN(C)C[C@H]1CC[C@@H](CN(C)C)C1=O = 27

Would you kindly share the measured growth inhibition for `CCOC(=O)c1cnc2cc(C(F)(F)F)ccc2c1N=[N+]=[N-]` ?
23

And COc1cc2c(c(OC)c1OC)-c1c(cc3c(c1OC)OCO3)CC(C)C(C)(O)C2OC(=O)c1ccccc1 (stereo not given) ?
-25

And CCN(CC)CC(O)c1ccc2ccc3ccccc3c2c1 (stereo not given) ?
14

And `COc1ccc2nc3c([N+](=O)[O-])ccc(NCCN(C)C)c3c(NCCN(C)C)c2c1` ?
26

And C[CH2][Sn]([CH2]C)([O]C(=O)C(OC(C)=O)c1ccccc1)[O]C(=O)C(OC(C)=O)c1ccccc1 (stereo not given) ?
15

And CCCCCCCCCCCCCCCCCCN(C)CC(COP(=O)([O-])OCC[N+](C)(C)C)OC (stereo not given) ?
97

###

List of growth inhibition values.
experimentNotes: NCI Yeast Anticancer Drug Screen. Data for the rad18 strain (AID 177)
details: S. cerevisiae rad18 mutant growth inhibition; at 3.7 µM; active compounds read high
About 79,000 compounds went through this panel and 15% of them were active in at least one assay; those are over-represented in the sample as a whole.
Write down the numeric answer in % and omit the unit.

* CCCCc1cc(O)ccc1O | 7

Would you kindly share the measured growth inhibition for `CSC(=S)Nc1cc(C)ccn1` ?
-29

And `O=C(CCCN1CCC2(CC1)CC(=O)N(N1CCCCCC1)C2=O)c1ccc(F)cc1` ?
49

And Cc1c(C(Cc2ccccc2N(C)C(=O)/C=C\C(=O)O)c2c[nH]c3ccccc23)c2ccccc2n1C (stereo not given) ?
-14

And `CC(=O)Nc1ccc2c(c1)C(=Nc1ccc(C(=O)O)cc1)c1ccccc1-2` ?
15

And COC1C=COC2(C)Oc3c(C)c(O)c4c(c3C2=O)/C(=N/C2CCC(O)OC2C)C=C(NC(=O)/C(C)=C\C(=O)C2CC2C(O)C(C)C(O)C(C)C(OC(C)=O)C1C)C4=O (stereo not given) ?
0

###

experimentNotes: NCI Yeast Anticancer Drug Screen. Data for the mgt1 strain (AID 153)
details: S. cerevisiae mgt1 mutant growth inhibition; at 100.0 µM
The panel holds about 79,000 compounds, 15% with a hit somewhere; the sample as a whole holds those more often. The source made the active and inactive calls. Rule as the data show it: active = growth inhibition above about 70%; inactive = the rest.
In this exercise, the only acceptable responses are active, inactive

Some solved entries appear below for comparison.
* CCCCCCCCCCC(=O)Cl | active
* COC(=O)CSSCc1ccc([N+](=O)[O-])cc1 | active
* Cc1cc2c(cc1C(=O)CCC(=O)O)CC1(C2)Cc2cc(C)c(C(=O)CCC(=O)O)cc2C1 | inactive
* CC(C)(C)c1nc2c(o1)C(=O)c1ccccc1C2=O | active
* N#CSc1ccc(S(N)(=O)=O)cc1 | inactive
* C(=C\c1ccccc1)/COc1ccccc1C(N1CCOCC1)n1nc2ccccc2n1 (centres undefined) | active
* O=C1C2CC[C@@H]3C(=O)C(Cl)(Cl)[C@@H]3CCC2C1(Cl)Cl (some centres undefined) | inactive
* OC1CCCc2c1cc1ccc3cccc4ccc2c1c34 (centres undefined) | active
* BrCc1cccc2ccc3cccc(CBr)c3c12 | inactive
* Nc1nc(-c2cccnc2)cc(-c2cc(-c3cccnc3)nc(N)n2)n1 | inactive

What outcome does the record of this test show for `O=C1C=CC(=O)N1c1ccc2c(c1)Cc1cc(NC(=O)C(F)(F)F)ccc1-2` ?
active

And `CNC(=O)OCc1c(COC(=O)NC)c(-c2ccc(Cl)c(Cl)c2)n2c1CCC2` ?
active

And `CC1=C(C)Cc2c(O)ccc(O)c2C1` ?
inactive

And `CN(C)c1ccc(Sc2ccc3nc(N)nc(N)c3c2)cc1` ?
inactive

And CCOC(=O)[C@H]1Nc2ccccc2C2c3ccccc3CC21 (some centres undefined) ?
inactive

And `COP(=O)(OC)/C(=C\C1=CN(C(c2ccccc2)(c2ccccc2)c2ccccc2)CN1)NC=O` ?
active

And `CCCCCCCCCCNC(=O)OCC` ?
active

And CCCCCCCCCCCCCCC(C(=O)[O-])[n+]1ccccc1 (centres undefined) ?
active

And `CCCCCCCCCCCC(=O)N(C)C` ?
active

And `Cc1ccc2[nH]c3c(C)c4cc[n+](C)cc4c(C)c3c2c1` ?
active

And `O=C(CCCN1CCC2(CC1)CC(=O)N(N1CCCCCC1)C2=O)c1ccc(F)cc1` ?
active

And `O=C1C=CC(=Nc2ccc3c(c2)Cc2cc(NC(=O)C(F)(F)F)ccc2-3)O1` ?
active

And `[O-][n+]1c2ccc(O)cc2nc2ccc(Br)cc21` ?
active

And `O=[n+]1c2ccc(Cl)cc2n([O-])c2ccc(Cl)cc21` ?
inactive
